Here, each record is paired with measured viability at 28.5 h, 10 µM data.
experiment: in vitro; conditions: human, hela cells, % viability

# molecule, viability at 28.5 h, 10 µM [%]
rows = [
    ("O=C(O)CC(C(=O)O)c1ccc(F)cc1 (centres unmarked) [CBK268531]", 87.6),
    ("CN(C)c1ccc(-c2nnc([C@H]3CCN(C(=O)CCC(=O)O)C3)o2)cc1 [CBK289408]", 119),
    ("CC(C)[C@@H](CO)Nc1cncc(-c2ccc(F)cc2F)n1 [CBK065875]", 98.5),
    ("O=C(NC1CCN(CC2(c3ccccc3)CC2)CC1)C1CCOCC1 [CBK285352]", 94.4),
    ("Cc1noc(C)c1C(=O)N1CCCCCC1c1cnn(C)c1 (centres unmarked) [CBK284974]", 98.8),
]

----------
Here, each record is paired with measured viability at 28.5 h, 10 µM data.
experiment: in vitro; conditions: human, hela cells, % viability

# compound, unit_descriptor, viability at 28.5 h, 10 µM
measured = [
    ("Cc1cccc(C(=O)Nc2ccc3oc(-c4cccnc4)nc3c2)c1", "%", 82.7),
    ("COC(=O)c1ccccc1NC(=O)CNC(=O)c1ccc(Cl)cc1Cl", "%", 105),
    ("CCCCc1ccc(N2C(=O)CC(Nc3ccc(C(=O)O)cc3)C2=O)cc1 (centres unmarked)", "%", 108),
    ("O=c1nc(NN=C2CCCCC2)cn[nH]1", "%", 90.8),
    ("Cc1nc(O)cc(C2CCCN(C(=O)c3csc4c3CCCC4)C2)n1 (centres unmarked)", "%", 87.3),
]

----------
assay: in vitro; details: human, hela cells, % viability
Here, each record is paired with measured viability at 28.5 h, 10 µM data.

# compound, unit_descriptor, viability at 28.5 h, 10 µM
rows = [
    ("CCOC(=O)c1sc2nccc(N(C)C)c2c1-n1cccc1", "%", 93.4),
    ("CC(C)(CO)NC(=O)c1cc(S(=O)(=O)N2CCOCC2)ccc1Cl", "%", 94),
    ("COc1ccc(CN2CCN(C(=O)c3cccc(N(C)C)c3)CC2)cc1", "%", 98),
    ("COc1cccc(CN2CCC3(CCCNC3=O)CC2)c1", "%", 96.6),
    ("CS(=O)(=O)Nc1cc2cccnc2nc1-c1ccccc1", "%", 104),
    ("COc1ccc(CCN2CCN(c3nccnc3OCc3cc(C)on3)CC2)cc1OC", "%", 105),
    ("NCCc1c[nH]c2ccc(OCC(=O)O)cc12 [CBK265853C]", "%", 86.2),
    ("O=C1COc2ccccc2CCCCC2(CCCNC2)CN1 (stereo not shown)", "%", 90.5),
    ("Cc1onc(-c2ccccc2)c1C(=O)NNC(=S)NC(=O)c1ccc(Cl)cc1", "%", 91.1),
    ("COc1ccc(NC(=O)C(C)n2nc(C(=O)O)c3ccccc3c2=O)cc1 (stereo not shown)", "%", 107),
]

----------
assay: in vitro; conditions: human, hela cells, % viability
MET if viability at 28.5 h, 10 µM is below 90%. NOT MET if not; exact matches included in NOT MET.

# molecule, classification
records = [
    ("Cc1cc(NC(=O)CSc2ccc3nnc(-c4ccccc4)n3n2)no1", "NOT MET"),
    ("CCN(CC)C(=O)CN1CCC(Oc2cncc(OCc3ccc(Cl)c(Cl)c3)n2)C1 (centres unmarked)", "NOT MET"),
    ("COC(=O)CNC(c1ccccc1)c1cc(Br)ccc1N (centres unmarked)", "NOT MET"),
    ("COc1ccc(CCOc2nccnc2-c2ccsc2)cc1", "MET"),
]
